- assay text: Selectivity index, ratio of IC50 for African green monkey Vero cells to IC50 for Trypanosoma cruzi MHOM/Pe/2011/Arequipa DTU 5 epimastigotes
- Format: toxicity
- condition context: read-out: Ratio IC50
Exercise: state measured selectivity ratio for each of the compounds provided.
Simply state the number, no unit and no words.

Which selectivity ratio value is on record for O=C(CCN1CCN(c2ccc(F)cc2)CC1)c1ccc(C(F)(F)F)cc1 ?
0.8

Which selectivity ratio value is on record for COc1ccc(C(=O)CCN2CCN(c3ccc(C(F)(F)F)cc3)CC2)cc1 ?
1.9

Which selectivity ratio value is on record for O=C(CCN1CCN(c2ccc(C(F)(F)F)cc2)CC1)c1ccc(Br)cc1 ?
2.6

Which selectivity ratio value is on record for O=C(CCN1CCN(c2ccc(Cl)cc2)CC1)c1ccc(C(F)(F)F)cc1 ?
1

Which selectivity ratio value is on record for COc1ccc(C(=O)CCN2CCN(c3ccc(F)cc3)CC2)cc1 ?
40.2

Which selectivity ratio value is on record for O=C(CCN1CCN(c2ccc(Cl)cc2)CC1)c1ccc(F)c(Br)c1 ?
7.7

Which selectivity ratio value is on record for COc1ccc(C(=O)CCN2CCN(c3ccc(Cl)cc3)CC2)cc1 ?
31.5

Which selectivity ratio value is on record for O=C(CCN1CCN(c2ccccc2F)CC1)c1ccc(F)cc1 ?
1.3

Which selectivity ratio value is on record for COc1ccc(C(=O)CCN2CCN(Cc3cccc(C)c3)CC2)cc1OC ?
2.7

Which selectivity ratio value is on record for COc1ccc(C(=O)CCN2CCN(Cc3cccc(F)c3)CC2)cc1OC ?
0.5

Which selectivity ratio value is on record for COc1ccc(C(=O)CCN2CCN(c3ccc([N+](=O)[O-])cc3)CC2)cc1OC ?
1.1

Which selectivity ratio value is on record for O=C(CCN1CCN(c2ccc(F)cc2)CC1)c1ccccc1 ?
0.2

Which selectivity ratio value is on record for O=C(CCN1CCN(c2ccc([N+](=O)[O-])cc2)CC1)c1ccc(C(F)(F)F)cc1 ?
5.6

Which selectivity ratio value is on record for O=C(CCN1CCN(c2ccc(Cl)cc2)CC1)c1ccc(OC(F)(F)F)cc1 ?
2.3

Which selectivity ratio value is on record for O=C(CCN1CCN(c2ccc([N+](=O)[O-])cc2)CC1)c1ccc(Cl)c(F)c1 ?
3.8

Which selectivity ratio value is on record for O=C(CCN1CCN(c2ccc(F)cc2)CC1)c1ccc(OC(F)(F)F)cc1 ?
0.8
